Assay: physchem
Details: octanol/water
Description: Octanol-water partition coefficient, log P of the compound
quantity.kind: logP

[
  {
    "smiles.data": "CCS(=O)(=O)c1cc(NC(=O)/C=C/c2ccc(OC(C)=O)c(OC(C)=O)c2)c2cccc(S(=O)(=O)Nc3ccccc3)c2c1",
    "numeric.readout": 3.15
  },
  {
    "smiles.data": "CC(=O)Oc1ccc(/C=C/C(=O)Nc2cccc3c(S(=O)(=O)Nc4ccccc4C)cccc23)cc1OC(C)=O",
    "numeric.readout": 4.18
  },
  {
    "smiles.data": "CC(=O)Oc1ccc(/C=C/C(=O)N(c2cccc3c(S(=O)(=O)Nc4ccc(SC(F)(F)F)cc4)cccc23)S(=O)(=O)C(F)(F)F)cc1OC(C)=O",
    "numeric.readout": 7.16
  },
  {
    "smiles.data": "CC(=O)Oc1ccc(/C=C/C(=O)Nc2cccc3c(S(=O)(=O)Nc4ccc(C(F)(F)F)cc4)cccc23)cc1OC(C)=O",
    "numeric.readout": 4.55
  },
  {
    "smiles.data": "CCCCN(c1ccc(F)cc1)S(=O)(=O)c1cccc2c(NC(=O)/C=C/c3ccc(OC(C)=O)c(OC(C)=O)c3)cccc12",
    "numeric.readout": 5.12
  },
  {
    "smiles.data": "CCN(c1ccccc1)S(=O)(=O)c1cccc2c(N(C(=O)/C=C/c3ccc(OC(C)=O)c(OC(C)=O)c3)c3ccccc3)cc(C)cc12",
    "numeric.readout": 6.65
  },
  {
    "smiles.data": "CCS(=O)(=O)c1ccc(NS(=O)(=O)c2cccc3c(NC(=O)/C=C/c4ccc(OC(C)=O)c(OC(C)=O)c4)cccc23)cc1",
    "numeric.readout": 3.15
  }
]
